Exercise: for every item that follows, state its recorded kon.
- study.target: T1, His-tagged cynomolgus PD-1 ECD (cynomolgus (Macaca fascicularis), UniProt Q15116 25-170 (human entry))
- T1 construct: bought from Acro Biosystems; not shown: His tag
- T1 chain: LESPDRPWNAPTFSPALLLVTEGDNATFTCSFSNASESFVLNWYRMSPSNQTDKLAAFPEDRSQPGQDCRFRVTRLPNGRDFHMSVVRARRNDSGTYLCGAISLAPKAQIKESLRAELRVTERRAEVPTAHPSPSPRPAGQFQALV
- method: SPR, IgG captured, monovalent PD-1 ECD analyte
Give bare numbers, in M⁻¹ s⁻¹.

binder	unit.label	kon
12748.16124 (antibody, human IgG1, lambda, L234A L235A, V domains shown, alternative germline VL variant of 12748.15381; IgG1 LALA, lambda) VH: EVQLLESGGGLVQPGGSLRLSCAASGFTFSDYAMNWVRQAPGKGLEWVAGIGNDGSYTNYGAAVKGRATISRDNSKNTLYLQMNSLRAEDTAVYYCASDIRSRNDCSYFLGGCSSGFIDVWGQGTLVTVSS VL: SYELTQPPSVSVSPGQTARITCSGGSSYSYGWFQQKPGQAPVTVIYESNNRPSDIPERFSGSSSGTTVTLTISGVQAEDEADYYCGNADSSSGIFGSGTKVTVLG	M⁻¹ s⁻¹	4.8e+06
12865.15377 (antibody, human IgG1, lambda, L234A L235A, V domains shown, humanized, IgG1 LALA, lambda) VH: EVQLLESGGGLVQPGGSLRLSCAASGFDFSDHGMQWVRQAPGKGLEYVGVIDTTGRYTYYAPAVKGRATISRDNSKNTLYLQMNSLRAEDTAVYYCAKTTCVGGYLCNTVGSIDAWGQGTLVTVSS VL: SYELTQDPAVSVALGQTVRITCSGGGSSSYYGWYQQKPGQAPVTVIYDDTNRPSGIPDRFSGSSSGNTASLTITGAQAEDEADYYCGGYEGSSHAGIFGSGTKVTVLG	M⁻¹ s⁻¹	510000
12796.15376 (antibody, human IgG1, lambda, L234A L235A, V domains shown, humanized, IgG1 LALA, lambda) VH: EVQLLESGGGLVQPGGSLRLSCAASGFDFSSYTMQWVRQAPGKGLEWVGVISSTGGSTGYGPAVKGRATISRDNSKNTLYLQMNSLRAEDTAVYYCVKSVSGDAWSVDGLDAWGQGTLVTVSS VL: SYELTQDPAVSVALGQTVRITCSGGGSAYGWYQQKPGQAPVTVIYYNNQRPSDIPDRFSGSSSGNTASLTITGAQAEDEADYYCGSYDSSAVGIFGSGTKVTVLG	M⁻¹ s⁻¹	320000
12748.15381 (antibody, human IgG1, lambda, L234A L235A, V domains shown, humanized, IgG1 LALA, lambda) VH: EVQLLESGGGLVQPGGSLRLSCAASGFTFSDYAMNWVRQAPGKGLEWVAGIGNDGSYTNYGAAVKGRATISRDNSKNTLYLQMNSLRAEDTAVYYCASDIRSRNDCSYFLGGCSSGFIDVWGQGTLVTVSS VL: SYELTQDPAVSVALGQTVRITCSGGSSYSYGWFQQKPGQAPVTVIYESNNRPSDIPDRFSGSSSGNTASLTITGAQAEDEADYYCGNADSSSGIFGSGTKVTVLG	M⁻¹ s⁻¹	4.6e+06

Next:
Entry 12760.15375 (antibody, human IgG1, lambda, L234A L235A, V domains shown, humanized, IgG1 LALA, lambda) VH: EVQLLESGGGLVQPGGSLRLSCAASGFTFSTFNMVWVRQAPGKGLEYVAEISSDGSFTWYATAVKGRATISRDNSKNTVYLQMNSLRAEDTAVYYCAKSDCSSSYYGYSCIGIIDAWGQGTLVTVSS VL: SYELTQDPAVSVALGQTVRITCSGGISDDGSYYYGWFQQKPGQAPVTVIYINDRRPSNIPDRFSGSSSGNTASLTITGAQAEDEADYYCGSYDSSAGVGIFGSGTKVTVLG , kon reported as 1e+06
